- measured on: T1, recombinant cynoPD-1 (construct not stated) (cynomolgus monkey, UniProt B0LAJ3 25-170)
- T1 construct: not shown: probably His as elsewhere
- test protocol: SPR, Ab captured, PD-1 analyte
For each entry below, report its kon value.
One number for each entry, in M⁻¹ s⁻¹.

Would you please look over these solved cases?
binder="ZJN296-3 (antibody, V domains shown, human IgG1; also called GH + T073R, GL) VH: QVQLVQSGAEVKKPGASVKVSCKASGYDFTSHWMHWVRQAPGQGLEWMGAIDPSDSYTNYNQKFKGRVTMTTDRSTSTAYMELRSLRSDDTAVYYCARSPFDYWGQGTTVTVSS VL: DIQMTQSPSSLSASVGDRVTITCKASQDVSTAVAWYQQKPGKAPKLLIYSASYRYTGVPSRFSGSGSGTDFTFTISSLQPEDIATYYCQQHYSFPFTFGQGTKLEIK" quantity_name=kon numeric_result=47600
binder="ZJN296-2 (antibody, V domains shown, human IgG1; also called GH + T071V, GL) VH: QVQLVQSGAEVKKPGASVKVSCKASGYDFTSHWMHWVRQAPGQGLEWMGAIDPSDSYTNYNQKFKGRVTMTVDTSTSTAYMELRSLRSDDTAVYYCARSPFDYWGQGTTVTVSS VL: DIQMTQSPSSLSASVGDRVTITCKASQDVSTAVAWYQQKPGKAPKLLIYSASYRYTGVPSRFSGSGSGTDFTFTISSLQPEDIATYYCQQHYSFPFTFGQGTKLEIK" quantity_name=kon numeric_result=59600
binder="ZJN296-0 (antibody, human IgG1, V domains shown, human IgG1; also called humanized ZJN296-0; GH + GL) VH: QVQLVQSGAEVKKPGASVKVSCKASGYDFTSHWMHWVRQAPGQGLEWMGAIDPSDSYTNYNQKFKGRVTMTTDTSTSTAYMELRSLRSDDTAVYYCARSPFDYWGQGTTVTVSS VL: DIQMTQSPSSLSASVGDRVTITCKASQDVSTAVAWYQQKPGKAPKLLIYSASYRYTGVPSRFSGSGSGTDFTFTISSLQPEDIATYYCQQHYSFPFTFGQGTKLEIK" quantity_name=kon numeric_result=61500

Note: attention shifts to another entry.
Reported kon ( ZJN296-6 (antibody, V domains shown, human IgG1; also called GH + T071V + T073R, GL) VH: QVQLVQSGAEVKKPGASVKVSCKASGYDFTSHWMHWVRQAPGQGLEWMGAIDPSDSYTNYNQKFKGRVTMTVDRSTSTAYMELRSLRSDDTAVYYCARSPFDYWGQGTTVTVSS VL: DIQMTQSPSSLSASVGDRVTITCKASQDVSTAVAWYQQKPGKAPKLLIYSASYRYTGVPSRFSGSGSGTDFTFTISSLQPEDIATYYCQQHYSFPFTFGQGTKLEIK ) = 63600
